Here is a set of compounds with reported IC50 for Coagulation factor XI (Homo sapiens), compiled from the literature.
Decide using IC50 alone. Strictly below 2000 nM: 1. Equal to or above 2000 nM: 0.

Compound	Qualitative label
Cc1c(C(C)n2cc(NC(=O)c3cncc(-c4c(C(F)F)ccc(Cl)c4F)n3)cn2)nnc(N2C[C@H]3C[C@H]3C2=O)c1C (single isomer, unassigned)	0
Cc1cc(Cn2cc(NC(=O)c3nc(-c4c(C(F)F)ccc(Cl)c4F)cnc3C)cn2)cnc1N1C[C@H]2C[C@H]2C1=O	1
CC(=O)c1ccc(Cl)cc1-c1cc(=O)n([C@@H](Cc2ccccc2)C(=O)Nc2ccc(C(=O)O)cc2)nc1OC1COC1	1
O=C(Nc1cnn(Cc2cnc(N3C[C@H]4C[C@H]4C3=O)c(F)c2)c1)c1cncc(-c2c(C(F)F)ccc(Cl)c2F)n1	0
CC1(c2cc(N)n(CC(=O)N3CC[C@@]4(C3)OC(=O)Nc3ccc(Cl)c(F)c34)n2)CC1	1

Proceed to the following item.
Lab log: compare recorded IC50 with 2000 nM; is it strictly lower for CC[C@@H](NC(=O)N1C(=O)[C@H](Cc2cc(C)nc(N)c2)[C@H]1C(=O)N(C)c1ccn(C)n1)c1ccccc1 ?
1
